For each entry below, report its IC50 value.
testedSystem: Mitogen-activated protein kinase 9 (Homo sapiens)
Sequence (P45984 whole entry): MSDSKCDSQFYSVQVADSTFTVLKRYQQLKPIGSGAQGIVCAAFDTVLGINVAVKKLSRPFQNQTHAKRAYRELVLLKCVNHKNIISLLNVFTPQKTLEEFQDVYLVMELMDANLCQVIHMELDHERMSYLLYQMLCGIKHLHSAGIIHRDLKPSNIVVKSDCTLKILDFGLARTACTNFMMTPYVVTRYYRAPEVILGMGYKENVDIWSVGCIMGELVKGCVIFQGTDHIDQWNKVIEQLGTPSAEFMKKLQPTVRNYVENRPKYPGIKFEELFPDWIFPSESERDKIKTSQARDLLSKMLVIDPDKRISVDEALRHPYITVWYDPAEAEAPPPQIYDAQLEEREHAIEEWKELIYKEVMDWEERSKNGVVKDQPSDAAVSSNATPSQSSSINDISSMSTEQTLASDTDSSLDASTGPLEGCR
experimentSummary: Inhibition of human JNK2
Numbers only, in µM.

{"compound": "CC1CCC(c2nc(-c3ccc(F)cc3)c(-c3ccncc3)[nH]2)CC1 (configuration not stated)", "testedSystem": "Mitogen-activated protein kinase 9 (Homo sapiens)", "unitSymbol": "µM", "reported": 166}

Q) What reported IC50 corresponds to `CNc1nccc(-c2nc(C3CCNCC3)[nH]c2-c2cccc(C(F)(F)F)c2)n1` on Mitogen-activated protein kinase 9 (Homo sapiens)?
A) 404

----------
testedSystem: Ribosomal protein S6 kinase alpha-3 (Homo sapiens)
Sequence (P51812 whole entry): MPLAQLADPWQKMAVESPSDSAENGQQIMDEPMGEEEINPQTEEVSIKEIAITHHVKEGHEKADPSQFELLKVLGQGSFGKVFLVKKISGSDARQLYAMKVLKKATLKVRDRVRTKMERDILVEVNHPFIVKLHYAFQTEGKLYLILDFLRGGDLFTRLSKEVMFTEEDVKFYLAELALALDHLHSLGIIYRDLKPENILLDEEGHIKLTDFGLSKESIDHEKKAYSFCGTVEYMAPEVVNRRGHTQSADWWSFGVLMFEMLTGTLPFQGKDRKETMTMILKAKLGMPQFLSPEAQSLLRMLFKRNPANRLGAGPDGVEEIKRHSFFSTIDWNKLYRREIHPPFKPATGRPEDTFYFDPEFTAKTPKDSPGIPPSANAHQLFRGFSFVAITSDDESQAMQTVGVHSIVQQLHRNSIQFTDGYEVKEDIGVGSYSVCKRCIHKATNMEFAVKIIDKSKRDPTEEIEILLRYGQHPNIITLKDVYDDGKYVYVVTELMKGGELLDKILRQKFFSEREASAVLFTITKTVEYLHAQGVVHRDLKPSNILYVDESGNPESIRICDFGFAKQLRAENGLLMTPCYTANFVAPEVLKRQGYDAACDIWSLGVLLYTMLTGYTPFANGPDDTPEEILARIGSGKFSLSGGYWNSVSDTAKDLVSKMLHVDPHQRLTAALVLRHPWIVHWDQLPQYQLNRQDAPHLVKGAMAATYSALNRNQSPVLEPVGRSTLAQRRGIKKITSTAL
experimentSummary: Inhibition of human RSK2
resultType: IC50 (µM)
Answers are plain numbers, in µM.

Q) Requested read-out IC50, target or system Ribosomal protein S6 kinase alpha-3 (Homo sapiens), entry CC1CCC(c2nc(-c3ccc(F)cc3)c(-c3ccncc3)[nH]2)CC1 (stereo unspecified)
A) 39
